# TARGET_OF_ASSAY: T1, human protein C (PC) zymogen (human, UniProt P04070 43-197; P04070 200-461)
# T1 construct: Bought
# PROTOCOL_SUMMARY: ELISA screen, PC-coated wells, OD450, n=2 [Continued]
OUTCOME_MEASURE: binding result

SR16983-R2-P3-F01 (VHH) VHH: EVQLVESGGGLVQPGGSLRLSCAASGFTFSTKWMYWVRQGPGKGLEWVSTIDASGGSTYYADSVKGRFTISRDNTEKKVYLQMNSLESADTAVYYCVRSAGGQFRGRGTQVTVSS
no binding
SR16983-R3P2H09 (VHH) VHH: EVQLVESGGGLVQAGGSLRVSCTTSGSTFSITAGGWYRQTPGKERELVADIANDGSTTYANSVKGRFTISRDNAKNTVELQMSSLKLEDTAAYRCFVVGISDSMPRPRAYWGQGTQVTVSS
no binding
LP18 (SR16983-R4-P1-A11) (VHH, not shown: small tags and cut ends, Llama VHH purified from E. coli periplasm) VHH: QLQLVESGGGLVQPGGSLRLSCAASGFTFSTKWMYWVRQGPGKGLERVAAIDAGGTSTYYADSVKGRFTISRDNSENTVYLQMNSLESADTAVYYCARSEGGLFRGRGTQVTVSA
no binding

Origin of the recorded values: patent US20250163183A1
